system: HT-29; test: NCI tumour cell line growth inhibition, 48 h
The source made the active and inactive calls. Cut-off read from the data, not from the text of the source: active = GI50 up to about 1.1 µM and inactive = higher.
PROPERTY LABEL: GI50

> print(dat)
                                   compound          measurement
1  O=c1/c(=C/c2ccc(-c3ccc(Cl)cc3Cl)o2)sc2n1[C@@H](c1ccc(Cl)cc1)C=C(c1cc(F)c(Cl)cc1Cl)N=2   39.8 µM (inactive)
2  CN1CCN([C@H]2C[C@H]3[C@@H]4CC=C5C[C@@H](O)CC[C@]5(C)[C@H]4CC[C@]3(C)C2=O)CC1   42.2 µM (inactive)
3  CC1=C(O)C(=O)C2C(=O)C1C(C)C2c1ccc(Cl)cc1 (stereo not given)  > 100 µM (inactive)
4       CC1CC(Br)C(=O)O1 (stereo not given)  > 100 µM (inactive)

# input for lookup
Write down the reported GI50 of O=c1[nH]cc(/N=C/c2cc(Cl)cc(Cl)c2O)c(=O)[nH]1 , test system: HT-29.
26.5 µM (inactive)
